tested on: Dd2; test: qHTS profiling for inhibitors of Plasmodium falciparum proliferation (AID 504749); also: nearly all actives have a fitted effect of over 60% in size; conditions: P. falciparum in erythrocytes, SYBR Green DNA, 72 h; series mostly up to 28.7 µM
Records with an inconclusive call do not appear. Activity calls are given as the source filed them. Calls follow the shape of the dose curve; as a rule, active = well fitted inhibition curve with a large enough effect; inconclusive = small, poorly fitted or top-dose-only effect; inactive = flat fitted curve, though single readings scatter.
The reply should name one outcome from YES = active, NO = inactive

Record excerpt, results attached:
{"columns": ["molecule", "assigned_class"],
 "data": [
  ["CC[C@@H]1[C@@H]2C[C@H]3[C@H]4N(C)c5ccccc5[C@@]45C[C@@H]([C@@H]2[C@@H]5O)N3[C@H]1O", "NO"],
  ["CNC[C@H](O)c1ccc(O)cc1", "NO"],
  ["C[N+]1(C)[C@@H]2CC[C@H]1CC(OC(=O)[C@@H](CO)c1ccccc1)C2 (stereo not given in full)", "NO"],
  ["C[C@@H]1O[C@H](O[C@@H]2C=C3CC[C@H]4[C@@H](CC[C@]5(C)[C@@H](c6ccc(=O)oc6)CC[C@]45O)[C@@]3(C)CC2)[C@@H](O)[C@H](O)[C@@H]1O", "NO"],
  ["CC(=O)O[C@H]1CC[C@@]2(C)C(=CC[C@@H]3[C@H]2CC[C@]2(C)C(=O)CC[C@H]32)C1", "NO"],
  ["C[C@H](N)[C@@H](O)c1ccccc1", "NO"],
  ["CC1=C2[C@@H]3OC(=O)[C@@H](C)[C@@H]3CC[C@]2(C)C=CC1=O", "NO"],
  ["Oc1ccc2c3c1O[C@H]1[C@@H](O)CC[C@@]4(O)C(C2)N(CC2CCC2)CCC314 (stereo not given in full)", "NO"]
]}

Entry CCN[C@]1(c2cccs2)CCCCC1=O : call = ?
NO

Entry C=CC1CN2CCC1CC2C(OC(=O)OCC)c1ccnc2ccc(OC)cc12 (stereo not given) : call = ?
YES

====

Assay: HPAF-II 12hr Apoptosis Induction qHTS against the NCATS CANVASS Library (AID 1347358)
Conditions: HPAF-II caspase-3/7 Caspase-Glo luminescence; series mostly up to 46.1 µM
Source text: Natural products and their derivatives continue to be wellsprings of nascent therapeutic potential. […] To address this issue, the Canvass library of natural products was assembled (https://tripod.nih.gov/canvass), in collaboration with academic and industry researchers, for quantitative high-throughput screening (qHTS) across a diverse set of cell-based and biochemical assays. […] The luminescence is proportional to the amount of caspase activity in the assay reaction. […]
Inconclusive results are not listed. Activity calls are given as the source filed them. Calls come from the whole dose curve; as a rule, active = well fitted curve in the direction sought with a large enough effect; inconclusive = small, poorly fitted or top-dose-only effect, or another doubt; inactive = no such curve, though single readings can be large or run the other way. Starred links: 1 amine or outer side, 2 acyl side, 3 side chain; linkers in the order of their positions; H or OH if unused. Positions of bridges follow the written chain, without caps; N, C: chain ends. Non-standard residues stand in square brackets, D forms with d. Residues, ends and D or L forms follow the SMILES beside them. ξ: configuration not given here. *: point of attachment. X3 = C[C@@H](Oc1ccc([C@H](N[*:1])C(=O)[*:2])cc1)[C@]1(/C=C\C(=O)[*:3])CO1; d(aIle) = CC[C@H](C)[C@@H](N)C(=O)O; X2 = CC(C)[C@@H](O)C(C)C(=O)*; ξNMeF = CNC(Cc1ccccc1)C(=O)O; ξT = CC(O)C(N)C(=O)O; ξS = NC(CO)C(=O)O
parameter: outcome

{"columns": ["compound", "parameter", "result"],
 "data": [
  ["C/C=C/[C@@H]1[C@H]2C[C@@H](C)CC[C@@H]2C(C)=C[C@H]1C(=O)c1c(O)c(-c2ccc(O)cc2)c[nH]c1=O", "outcome", "inactive"],
  ["CC[C@H](C)[C@H]1NC(=O)[C@@H](NC(=O)C(C)[C@H](O)C(C)C)[C@@H](C)OC(=O)C2COC(=O)CNC(=O)/C=C\\[C@]3(CO3)[C@@H](C)Oc3ccc(cc3)[C@H](NC1=O)C(=O)N(C)C(Cc1ccccc1)C(=O)NC(C(C)O)C(=O)N2 (some centres not stated) (X2-T[d(aIle)][X3][ξNMeF][ξT][ξS]; ester 1-C; linker 3-6 via G)", "outcome", "inactive"]
]}
